# System: FLT3(ITD)
# assay.setup: Compound Concentration (nM):1000;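 further: KINOMEscan scanMAX binding as percent activity remaining versus control; lower means stronger binding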
Some molecules, each annotated with its measured Percent Control.
Value expressed in %; do not type the unit.

Look at this molecule and give its reported Percent Control. COc1cc(C)c(N(C)C(=O)CN(C)C)cc1Nc1nc(Nc2cccc(F)c2C(N)=O)c2cc[nH]c2n1 [GSK2219385] 82

Look at this molecule and give its reported Percent Control. NS(=O)(=O)c1ccc(N/N=C2\C(=O)Nc3ccc(-c4cnco4)cc32)cc1 [GW276655] 44

Look at this molecule and give its reported Percent Control. Cl.O=C(O[C@H]1CN[C@H](C#Cc2cc3ncnc(Nc4ccc5c(cnn5Cc5ccccc5)c4)c3s2)C1)N1CCOCC1 [GSK200398A] 98

Look at this molecule and give its reported Percent Control. NS(=O)(=O)c1ccc(N/N=C2\C(=O)Nc3ccc(C(=O)NCCc4c[nH]cn4)cc32)cc1 [GW300660X] 80

Look at this molecule and give its reported Percent Control. Cl.O=S1CCN(Cc2ccc(-c3ccc4ncnc(Nc5ccc(OCc6ccccc6)c(F)c5)c4c3)o2)CC1 [GW576924A] 100

====

# Tested on: KIT-autoinhibited
# assay.setup: Compound Concentration (nM):1000
recorded.metric: Percent Control (%)
Value expressed in %; do not type the unit.

C/C(Nc1ccc(S(N)(=O)=O)cc1)=C1/C(=O)Nc2ccccc21 [GW335962X] : 28
CN(C)c1cc2c(Nc3ccc4c(cnn4Cc4ccccc4)c3)ncnc2cn1 [GW282974X] : 100
COc1cc2ncn(-c3cc(O[C@H](C)c4ccccc4Cl)c(C(N)=O)s3)c2cc1OC [GSK237701A] : 100
CC1=C(C(=O)Nc2ccc3[nH]ncc3c2)C(c2ccc(Cl)c(Cl)c2)CC(=O)N1 (centres unmarked) [GSK299115A] : 100
COC(=O)Nc1nc2ccc(Oc3ccc(NC(=O)Nc4cc(C(F)(F)F)ccc4F)cc3)cc2s1.Cl [GW693917A] : 87
C[C@@H](Oc1cc(-n2cnc3ccc(OC4CCN(C)CC4)cc32)sc1C(N)=O)c1ccccc1Cl [GSK579289A] : 81
COc1cc(/C=N/Nc2ncnc3[nH]ncc23)ccc1O [GW578748X] : 57

In the following, a different compound is considered.
Look at this compound and give its reported Percent Control. COc1ccc(COc2ccc(Cc3cnc(N)nc3N)cc2OC)cc1 [GW632580X] 91

====

# Tested on: NEK9
# assay.setup: Compound Concentration (nM):1000
Some compounds, each annotated with its measured Percent Control.
Value expressed in %; do not type the unit.

COc1cc2ncnc(Nc3ccc4c(cnn4Cc4ccccc4)c3)c2cc1OC.Cl [GW282449A] : 100

Look at this compound and give its reported Percent Control. NS(=O)(=O)c1ccc(Nc2ncc(-c3ccccc3)o2)cc1 [GW572399X] 100

Look at this compound and give its reported Percent Control. CCS(=O)(=O)c1ccc(OC)c(Nc2ncc(-c3cccc(OC)c3)o2)c1 [GW580509X] 100

Look at this compound and give its reported Percent Control. CN1CCN(C(=O)c2ccc(NC(=O)Nc3ccc(N(C)c4ccnc(Nc5ccc(CS(C)(=O)=O)cc5)n4)cc3)cc2)CC1.Cl [GW830263A] 62

Look at this compound and give its reported Percent Control. CCn1c(-c2nonc2N)nc2c(C#CC(C)(C)O)nc(OCCNC)cc21.Cl 100

Look at this compound and give its reported Percent Control. COc1cccc(-n2ncc3c(N/N=C/c4ccncc4)ncnc32)c1 [GW784752X] 90

Look at this compound and give its reported Percent Control. CC1=C(C(=O)Nc2ccc3[nH]ncc3c2)C(c2ccc(Cl)c(Cl)c2)CC(=O)N1 (stereo not shown) [GSK299115A] 68

Look at this compound and give its reported Percent Control. NS(=O)(=O)c1ccc(N/N=C2\C(=O)Nc3ccc(C(=O)NCCc4c[nH]cn4)cc32)cc1 [GW300660X] 100

Look at this compound and give its reported Percent Control. O=C1Nc2ccc(C(=O)c3ccco3)cc2C1=Cc1cc(Cl)c(O)c(Cl)c1 [GW406108X] 100

Look at this compound and give its reported Percent Control. Cl.O=C(Nc1ccc(Oc2ccc3[nH]c(NC(=O)c4ccccc4)nc3c2)cc1)Nc1cc(C(F)(F)F)ccc1F [GW709042A] 20

Look at this compound and give its reported Percent Control. COc1cc(C)c(N(C)C(=O)CN(C)C)cc1Nc1nc(Nc2cccc(F)c2C(N)=O)c2cc[nH]c2n1 90

Look at this compound and give its reported Percent Control. Cl.O=C(O[C@H]1CN[C@H](C#Cc2cc3ncnc(Nc4ccc5c(cnn5Cc5ccccc5)c4)c3s2)C1)N1CCOCC1 [GSK200398A] 95

Look at this compound and give its reported Percent Control. COc1ccc2cc(-c3c(-c4ccncc4)nc(-c4ccc(S(C)(=O)=O)cc4C)n3C)ccc2c1 57

====

# System: EPHA1
# assay.setup: Compound Concentration (nM):1000
recorded.metric: Percent Control (%)
Value expressed in %; do not type the unit.

Record excerpt, results attached:
CCS(=O)(=O)c1ccc(OC)c(Nc2ncc(-c3cccc(OC)c3)o2)c1 [GW580509X] : 100
CCn1c(-c2nonc2N)nc2c(C#CC(C)(C)O)nc(OCCNC)cc21.Cl : 100
COc1cc(N2CCN(C(C)C)CC2)ccc1Nc1nc(Nc2ccc(F)cc2C(=O)NC[C@@H](O)CO)c2cc[nH]c2n1 [GSK1392956A] : 91
COc1cccc(-n2ncc3c(N/N=C/c4ccncc4)ncnc32)c1 [GW784752X] : 87
CC(C)COC(=O)c1ccc2c(c1)/C(=C/Nc1ccc(S(N)(=O)=O)cc1)C(=O)N2 [GW416981X] : 100
Cl.O=S1CCN(Cc2ccc(-c3ccc4ncnc(Nc5ccc(OCc6ccccc6)c(F)c5)c4c3)o2)CC1 [GW576924A] : 100

For the record CN(C)CCNC(=O)Nc1ccc(N(C)c2ccnc(Nc3ccc(CS(C)(=O)=O)cc3)n2)cc1.Cl [GW830900A] , what value of Percent Control is listed for EPHA1? 76

For the record COc1ccc2c(-c3ccnc(Nc4cccc(OC(F)(F)F)c4)n3)cnn2n1 [GW810372X] , what value of Percent Control is listed for EPHA1? 64

For the record C/C(Nc1ccc(S(N)(=O)=O)cc1)=C1/C(=O)Nc2ccccc21 [GW335962X] , what value of Percent Control is listed for EPHA1? 100

For the record Cl.c1ccc(Cc2nc3ccc(Nc4ncnc5ccccc45)cc3[nH]2)cc1 [GR269666A] , what value of Percent Control is listed for EPHA1? 100

For the record COc1ccc(COc2ccc(Cc3cnc(N)nc3N)cc2OC)cc1 [GW632580X] , what value of Percent Control is listed for EPHA1? 97

====

# Tested on: CAMK4
# assay.setup: Compound Concentration (nM):1000
Some compounds, each annotated with its measured Percent Control.
Value expressed in %; do not type the unit.

Record excerpt, results attached:
Cl.c1ccc(Cc2nc3ccc(Nc4ncnc5ccccc45)cc3[nH]2)cc1 [GR269666A] : 100
COC(=O)Nc1nc2ccc(Oc3ccc(NC(=O)Nc4cc(C(F)(F)F)ccc4F)cc3)cc2s1.Cl [GW693917A] : 100
COc1ccccc1-c1cc(/C=C2\C(=O)Nc3ncc(Br)cc32)cc(Br)c1O [GW442130X] : 94
NS(=O)(=O)c1ccc(N/N=C2\C(=O)Nc3ccc(C(=O)NCc4ccncc4)cc32)cc1 [GW300657X] : 100

In the following, a different compound is considered.
For the record NS(=O)(=O)c1ccc(Nc2ncc(-c3ccccc3)o2)cc1 [GW572399X] , what value of Percent Control is listed for CAMK4? 100

====

Some compounds, each annotated with its measured Percent Control.
# System: ABL1(F317I)-phosphorylated
# assay.setup: Compound Concentration (nM):1000

Record excerpt, results attached:
CCn1c(-c2nonc2N)nc2c(C#CC(C)(C)O)nc(OCCNC)cc21.Cl [GSK949675] : 100%
Cl.O=S1CCN(Cc2ccc(-c3ccc4ncnc(Nc5ccc(OCc6ccccc6)c(F)c5)c4c3)o2)CC1 [GW576924A] : 96%
Nc1ncnc2occ(-c3ccc(NC(=O)Nc4cc(C(F)(F)F)ccc4F)cc3)c12 [GW770249X] : 61%
COc1ccc2c(-c3ccnc(Nc4cccc(OC(F)(F)F)c4)n3)cnn2n1 [GW810372X] : 100%
NS(=O)(=O)c1ccc(N/N=C2\C(=O)Nc3ccc(-c4cnco4)cc32)cc1 [GW276655] : 59%
CC1=C(C(=O)Nc2ccc3[nH]ncc3c2)C(c2ccc(Cl)c(Cl)c2)CC(=O)N1 (centres unmarked) [GSK299115A] : 72%

Look at this compound and give its reported Percent Control. Cc1cc(O)cc(C)c1/C=C/c1cncc(C(N)=O)c1 [GW435821X] 32%

Look at this compound and give its reported Percent Control. COc1ccccc1-c1cc(/C=C2\C(=O)Nc3ncc(Br)cc32)cc(Br)c1O [GW442130X] 100%
